system: Adenovirus; assay: Adenovirus IC50s for CMX001, serotypes/isolates; type: cell-based; conditions: unidentified adenovirus, Ad4
pIC50: −log10 of the molar value.
recorded-metric: pIC50

CCCCCCCCCCCCCCCCOCCCOP(=O)(O)CO[C@H](CO)Cn1ccc(N)nc1=O
7.49

---

system: Adenovirus; experiment: Adenovirus IC50s for CMX001, serotypes/isolates; format: cell-based; settings: unidentified adenovirus, Ad14 (three isolates)
recorded-metric: IC50 (nM)

CCCCCCCCCCCCCCCCOCCCOP(=O)(O)CO[C@H](CO)Cn1ccc(N)nc1=O
34

---

test system: Variola major; test: organism not typed; type: cell-based; conditions: Vero 76
pEC50: −log10 of the molar value.
We begin with a simple list: items and their reported pEC50.
recorded-metric: pEC50

CCCCCCCCCCCCCCCCOCCCOP(=O)(O)CO[C@H](CO)Cn1ccc(N)nc1=O [CMX001, Hexadecyloxypropyl-cidofovir]
7.00
Nc1ccn(C[C@@H](CO)OCP(=O)(O)O)c(=O)n1 [Cidofovir, cidofovir, reference compound]
4.56

---

test: Single-dose, dose-escalation study in healthy adult volunteers; type: in vivo, human; conditions: human, oral; CMX001 2 mg/kg single dose, plasma, Mean
recorded-metric: AUC(0-t) (µg·h/mL)

CCCCCCCCCCCCCCCCOCCCOP(=O)(O)CO[C@H](CO)Cn1ccc(N)nc1=O
2.61

---

system: Adenovirus; assay: Adenovirus IC50s for CMX001, serotypes/isolates; assay type: cell-based; settings: unidentified adenovirus, Ad21
pIC50: −log10 of the molar value.
recorded-metric: pIC50

CCCCCCCCCCCCCCCCOCCCOP(=O)(O)CO[C@H](CO)Cn1ccc(N)nc1=O
7.36

---

assay: Safety and pharmacokinetics of CMX001 in healthy volunteers; format: in vivo, human; conditions: blood; Human, CMX001 0.025 mg/kg; analyte = label
We begin with a simple list: items and their reported Cmax.
recorded-metric: Cmax (ng/mL)

Nc1ccn(C[C@@H](CO)OCP(=O)(O)OCCCOCCCC(=O)O)c(=O)n1
1.69
CCCCCCCCCCCCCCCCOCCCOP(=O)(O)CO[C@H](CO)Cn1ccc(N)nc1=O
2.36

---

tested on: HPV 18; test: In vitro potency against dsDNA viruses: HPV 18; format: cell-based; details: HeLa
recorded-metric: EC50 (µM)

Nc1ccn(C[C@@H](CO)OCP(=O)(O)O)c(=O)n1 [Cidofovir, cidofovir, reference compound]
516
CCCCCCCCCCCCCCCCOCCCOP(=O)(O)CO[C@H](CO)Cn1ccc(N)nc1=O
0.42

---

tested on: Mad-4 JCV; test: JCV (Mad-4) initial infection of SVG cells (in situ DNA hybridization, qPCR); conditions: JC polyomavirus, read-out: EC50, JCV copy number
recorded-metric: EC50 (nM)

CCCCCCCCCCCCCCCCOCCCOP(=O)(O)CO[C@H](CO)Cn1ccc(N)nc1=O [CMX001, Hexadecyloxypropyl-cidofovir]
45

---

tested on: HSV-1; assay: microbe, parasite or virus in culture; assay type: cell-based; settings: Human alphaherpesvirus 1, strain F
recorded-metric: EC50

Nc1nc2c(ncn2COCCO)c(=O)[nH]1
350 nM
Nc1ccn(C[C@@H](CO)OCP(=O)(O)O)c(=O)n1 [Cidofovir, cidofovir, reference compound]
1500 nM
CCCCCCCCCCCCCCCCOCCCOP(=O)(O)CO[C@H](CO)Cn1ccc(N)nc1=O
10 nM

Values compiled from patent US20150141375A1.
